- target.desc: r-P2Y6 (Rattus norvegicus, UniProt Q63371)
- Construct: host or cells: human 1321N1 astrocytoma cells, stably transfected
- Sequence (Q63371 whole entry): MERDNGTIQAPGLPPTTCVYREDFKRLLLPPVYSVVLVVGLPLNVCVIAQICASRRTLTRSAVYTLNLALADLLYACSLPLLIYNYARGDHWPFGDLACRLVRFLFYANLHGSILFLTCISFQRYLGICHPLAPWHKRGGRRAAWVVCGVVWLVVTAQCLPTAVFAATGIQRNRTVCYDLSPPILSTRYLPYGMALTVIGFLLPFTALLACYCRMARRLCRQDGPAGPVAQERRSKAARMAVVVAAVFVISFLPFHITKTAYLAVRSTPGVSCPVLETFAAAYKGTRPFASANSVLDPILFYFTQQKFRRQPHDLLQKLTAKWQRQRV
- assay.procedure: Calcium mobilization assay, r-P2Y6 transfected 1321N1 astrocytoma cells
- Format: cell-based
recorded.endpoint: pIC50
// pIC50: -log10(molar conc.)

-- ask Give recorded pIC50. Cc1ccc([N+](=O)[O-])cc1S(=O)(=O)NC(=O)n1c(N)nc2cc([N+](=O)[O-])ccc21 [1c]
-- reply 4.79

---

- assay.procedure: MTT assay, non-transfected 1321N1 astrocytoma cells
- Format: cell-based, human
- cond: human, non-transfected 1321N1 astrocytoma cells; at 50 µM; non-transfected astrocytoma 1321N1 cells; triplicate; read-out: H-1321N1 Cell Line (%cytotoxicity ±SEM)
- Protocol: A 96-well plate was used to plate 20,000 human 1321N1 astrocytoma cells and allowed for incubation for 24 h at temp of 37°C in CO2 (5%) incubator. […] Utilizing a microplate reader, absorbance was determined at 570 nm and 630 nm for calculation of cell viability (FLUOstarOmega Microplate Reader-BMG LABTECH GmbH, Ortenberg, Germany) ([Sauer et al., 2009]).
recorded.endpoint: cytotoxicity at 24 h, 50 µM (%)
Express the result in % but write the number alone.

Sample answers from the record:
-- ask Give recorded cytotoxicity at 24 h, 50 µM. `Nc1nc2ccccc2n1C(=O)NS(=O)(=O)c1ccc(-c2ccccc2)cc1`
-- reply 43.1

-- ask Give recorded cytotoxicity at 24 h, 50 µM. `O=C(NS(=O)(=O)c1ccc([N+](=O)[O-])cc1)n1c(-c2ccccc2)nc2ccccc21`
-- reply 24.3

-- ask Give recorded cytotoxicity at 24 h, 50 µM. `Cc1ccc(S(=O)(=O)NC(=O)n2c(N)nc3cc([N+](=O)[O-])ccc32)cc1`
-- reply 17.3

-- ask Give recorded cytotoxicity at 24 h, 50 µM. `Nc1nc2cc(Cl)ccc2n1C(=O)NS(=O)(=O)c1ccc([N+](=O)[O-])cc1`
-- reply 41.7

-- ask Give recorded cytotoxicity at 24 h, 50 µM. `Cc1ccc([N+](=O)[O-])cc1S(=O)(=O)NC(=O)n1c(N)nc2cc([N+](=O)[O-])ccc21`
-- reply 21.1

-- ask Give recorded cytotoxicity at 24 h, 50 µM. `Nc1nc2ccccc2n1C(=O)NS(=O)(=O)c1cc(Cl)cc(Cl)c1O`
-- reply 39.9

-- ask Give recorded cytotoxicity at 24 h, 50 µM. `O=C(NS(=O)(=O)c1ccc([N+](=O)[O-])cc1)n1c(Cl)nc2ccccc21`
-- reply 27.6

-- ask Give recorded cytotoxicity at 24 h, 50 µM. `Cc1ccc([N+](=O)[O-])cc1S(=O)(=O)NC(=O)n1c(N)nc2ccccc21`
-- reply 46.2

Note: attention shifts to another entry.
-- ask Give recorded cytotoxicity at 24 h, 50 µM. `COc1ccc(S(=O)(=O)NC(=O)n2c(Cl)nc3ccccc32)cc1`
-- reply 21.2
